For each entry below, report its growth value.
Tested on: OVCAR-8 ovarian
Test: NCI-60 one-dose screen, 48 h (100 = growth as untreated, 0 = no growth, -100 = all killed)
Details: 10 µM unless noted
Compounds without any hit were thinned out: in the full panel of roughly 83,000, 20% have a hit.
Report only the number, with the unit % understood.

Need growth of `C[C@]12CCc3nc(-c4ccc(O)c(O)c4)sc3C1=CC[C@@H]1[C@@H]2CC[C@]2(C)C(=O)CC[C@@H]12` , thanks. 29.9

Fill in: growth of `CC(C)c1cccc(C(C)C)c1O` is ___ 102

Form field: reported growth of `Cc1cc(N(CCCl)CCCl)ccc1C=Nc1ccc(-c2csc(-c3ccccc3)n2)cc1` 91.3

Tell me the measured growth of C=CCOC(=O)C(Br)CC (centres undefined) , please. 106

// growth lookup, key: `Cc1c(C)c(N)c(C)c(C)c1N` 83.8

Need growth of `O=c1c2ccccc2nc(-c2ccccc2Cl)n1-c1nnc(C(F)(F)F)s1` , thanks. 32.7

Quick check: growth of `C[C@H](O)CCC(=O)c1ccoc1` ? 97.7

Record request: growth value, item CC12CCC3C(CCC4CC(O)CCC43C)C1CCC2=O (centres undefined) 99.9

If you can, please state the reported growth value of `CC[C@@H](C)C(=O)O[C@H]1[C@H](O)[C@H]2[C@@H](CN3C[C@@H](C)CC[C@H]3[C@@]2(C)O)[C@@H]2C[C@]34O[C@]5(O)[C@@H](OC(=O)[C@@](C)(O)CC)CC[C@@]3(C)[C@@H]5[C@@H](OC(C)=O)[C@@H](OC(C)=O)[C@H]4[C@@]21O` . 94.2

All figures here come from PubChem BioAssay (NCI).
